Target: UniProt P22303
Test: biochemical
Settings: read-out: AChE IC50 (μM ± SEM)
Here, each record is paired with measured IC50 data.

- molecule: "C=C(C)[C@@H]1CC[C@]2(CO)CC[C@]3(C)[C@H](CC[C@@H]4[C@@]5(C)CC[C@H](O)C(C)(C)[C@@H]5CC[C@]43C)[C@@H]12 [Compound 6, 3β, 28-Dihydroxylup-20(29)-ene]"
  IC50: "24 µM"
- molecule: "CCC(CCC(C)C1CCC2C3CC=C4CC(OC5OC(CO)C(O)C(O)C5O)CCC4(C)C3CCC12C)C(C)C [Compound 3, β-Sitosterol-3-O-β-D-Glucopyranoside]"
  IC50: "5.22 µM"

We next turn to a different molecule, shown below.
Just so you know, measured IC50 for CC[C@H](CC[C@@H](C)[C@H]1CC[C@H]2[C@@H]3CC=C4C[C@@H](O)CC[C@]4(C)[C@H]3CC[C@]12C)C(C)C [Compound 5, β-Sitosterol] came out at 14.6 µM

====

Biological target: AChE (Homo sapiens)
Test: biochemical
Settings: ratio of IC50 values; footnote a not given
Description: This yellow compound is UV detectable and is quantified with the passage of time with and without the impact of inhibitor agent. Briefly, from each enzyme solution, 5 μl were added to wells of micro plate and 5 μl DTNB was added to it. The resultant mixture was incubated for 15 min at 30°C in water bath followed by addition of 5 μl substrate solution. […] Control contains all solutions except inhibitor. Change in absorbance was recorded along with reaction time. […]
Recorded AChE selectivity for the following compounds
Answer with the value's number alone.

Some solved entries appear below for comparison.
- compound: "O=c1cc(-c2ccccc2)oc2cc(O)cc(O)c12 [Compound 9, 5,7-Dihydroxyflavone]"
  AChE selectivity: 0.02
- compound: "COc1cc(C(=O)CCO)ccc1O"
  AChE selectivity: 0.59
- compound: "C=C(C)[C@@H]1CC[C@]2(C)CC[C@]3(C)[C@H](CC[C@@H]4[C@@]5(C)CC[C@H](O)C(C)(C)[C@@H]5CC[C@]43C)[C@@H]12"
  AChE selectivity: 0.04

Sample CCC(CCC(C)C1CCC2C3CC=C4CC(OC5OC(CO)C(O)C(O)C5O)CCC4(C)C3CCC12C)C(C)C [Compound 3, β-Sitosterol-3-O-β-D-Glucopyranoside] ; AChE selectivity observed: 2.26

Recorded AChE selectivity (compound COc1ccc(C(CO)OC)cc1OC (stereo not shown) ): 0.10

Data point: C=C(C)[C@@H]1CC[C@]2(C(=O)O)CC[C@]3(C)[C@H](CC[C@@H]4[C@@]5(C)CC[C@H](O)C(C)(C)[C@@H]5CC[C@]43C)[C@@H]12 [Compound 7, 3β-Dihydroxylup-20(29)-ene-28-oic Acid] ; AChE selectivity = 0.07

Looking up C=C(C)[C@@H]1CC[C@]2(CO)CC[C@]3(C)[C@H](CC[C@@H]4[C@@]5(C)CC[C@H](O)C(C)(C)[C@@H]5CC[C@]43C)[C@@H]12 [Compound 6, 3β, 28-Dihydroxylup-20(29)-ene] , I found its AChE selectivity recorded as 1.06

====

Consider the following molecules and their measured BChE selectivity readings.
Target: BChE (Homo sapiens, UniProt P06276)
Sequence (P06276 29-602): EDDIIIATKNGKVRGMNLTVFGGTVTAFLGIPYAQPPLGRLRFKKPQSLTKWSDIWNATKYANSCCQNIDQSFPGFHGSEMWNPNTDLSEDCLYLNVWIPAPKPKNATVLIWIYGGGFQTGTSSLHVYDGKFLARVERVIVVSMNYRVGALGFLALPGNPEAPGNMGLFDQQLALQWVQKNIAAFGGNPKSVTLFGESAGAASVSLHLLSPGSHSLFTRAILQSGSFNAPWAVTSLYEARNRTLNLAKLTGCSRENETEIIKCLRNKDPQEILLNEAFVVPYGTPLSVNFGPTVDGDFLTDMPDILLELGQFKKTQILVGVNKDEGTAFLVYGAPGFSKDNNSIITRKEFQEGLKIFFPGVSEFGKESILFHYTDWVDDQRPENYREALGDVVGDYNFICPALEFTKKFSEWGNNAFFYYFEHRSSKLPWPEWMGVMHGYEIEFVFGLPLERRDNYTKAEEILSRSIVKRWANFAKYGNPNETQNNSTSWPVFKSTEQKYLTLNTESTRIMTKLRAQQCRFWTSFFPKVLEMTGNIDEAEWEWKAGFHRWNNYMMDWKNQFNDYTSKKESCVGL
Experiment: biochemical
Details: ratio of IC50 values; footnote b not given

Recorded BChE selectivity, per entry:
- molecule: "O=c1cc(-c2ccccc2)oc2cc(O)cc(O)c12 [Compound 9, 5,7-Dihydroxyflavone]"
  BChE selectivity: 51.27
- molecule: "COc1cc(C(=O)CCO)ccc1O [Compound 2]"
  BChE selectivity: 1.69
- molecule: "C=C(C)[C@@H]1CC[C@]2(C(=O)O)CC[C@]3(C)[C@H](CC[C@@H]4[C@@]5(C)CC[C@H](O)C(C)(C)[C@@H]5CC[C@]43C)[C@@H]12 [Compound 7, 3β-Dihydroxylup-20(29)-ene-28-oic Acid]"
  BChE selectivity: 12.78

Lookup result for COc1ccc(C(CO)OC)cc1OC (stereo not shown) [Compound 1] ; measured BChE selectivity: 9.62

Record C=C(C)[C@@H]1CC[C@]2(CO)CC[C@]3(C)[C@H](CC[C@@H]4[C@@]5(C)CC[C@H](O)C(C)(C)[C@@H]5CC[C@]43C)[C@@H]12 [Compound 6, 3β, 28-Dihydroxylup-20(29)-ene] . Reported BChE selectivity: 0.93

Item: CCC(CCC(C)C1CCC2C3CC=C4CC(OC5OC(CO)C(O)C(O)C5O)CCC4(C)C3CCC12C)C(C)C [Compound 3, β-Sitosterol-3-O-β-D-Glucopyranoside] | BChE selectivity: 0.47

BChE selectivity recorded for this molecule, C=C(C)[C@@H]1CC[C@]2(C)CC[C@]3(C)[C@H](CC[C@@H]4[C@@]5(C)CC[C@H](O)C(C)(C)[C@@H]5CC[C@]43C)[C@@H]12 [Compound 4, Lupeol] , is 27.71

====

Target: AChE (Homo sapiens, UniProt P22303)
Sequence (P22303 32-614): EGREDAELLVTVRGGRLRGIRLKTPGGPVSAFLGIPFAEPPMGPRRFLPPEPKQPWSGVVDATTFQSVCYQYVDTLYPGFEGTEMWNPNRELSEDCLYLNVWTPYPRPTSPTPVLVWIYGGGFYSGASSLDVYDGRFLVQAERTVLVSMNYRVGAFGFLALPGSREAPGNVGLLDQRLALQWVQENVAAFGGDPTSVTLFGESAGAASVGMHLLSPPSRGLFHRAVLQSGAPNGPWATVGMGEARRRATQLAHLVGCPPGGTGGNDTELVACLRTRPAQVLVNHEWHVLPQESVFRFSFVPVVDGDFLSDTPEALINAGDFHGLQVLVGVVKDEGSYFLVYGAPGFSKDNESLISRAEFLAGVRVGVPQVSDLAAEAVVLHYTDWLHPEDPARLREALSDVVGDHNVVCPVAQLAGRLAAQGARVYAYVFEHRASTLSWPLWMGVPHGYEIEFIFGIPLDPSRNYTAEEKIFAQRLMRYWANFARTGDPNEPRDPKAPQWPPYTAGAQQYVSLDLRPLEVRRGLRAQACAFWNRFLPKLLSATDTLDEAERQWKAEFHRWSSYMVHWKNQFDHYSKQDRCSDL
Assay: biochemical
Details: 250 μg/ml
Below, each of the compounds is paired with its reported inhibition at 250 µg/mL value.
Field format: number, assumed %, no unit text.

These recorded examples may help you get a feel for the data.
- compound: "C=C(C)[C@@H]1CC[C@]2(CO)CC[C@]3(C)[C@H](CC[C@@H]4[C@@]5(C)CC[C@H](O)C(C)(C)[C@@H]5CC[C@]43C)[C@@H]12 [Compound 6, 3β, 28-Dihydroxylup-20(29)-ene]"
  endpoint unit: "%"
  inhibition at 250 µg/mL: 96.1
- compound: "COc1cc(C(=O)CCO)ccc1O"
  endpoint unit: "%"
  inhibition at 250 µg/mL: 93
- compound: "C=C(C)[C@@H]1CC[C@]2(C)CC[C@]3(C)[C@H](CC[C@@H]4[C@@]5(C)CC[C@H](O)C(C)(C)[C@@H]5CC[C@]43C)[C@@H]12"
  endpoint unit: "%"
  inhibition at 250 µg/mL: 93.7
- compound: "CC[C@H](CC[C@@H](C)[C@H]1CC[C@H]2[C@@H]3CC=C4C[C@@H](O)CC[C@]4(C)[C@H]3CC[C@]12C)C(C)C"
  endpoint unit: "%"
  inhibition at 250 µg/mL: 91.3
- compound: "COc1ccc(C(CO)OC)cc1OC (centres unmarked)"
  endpoint unit: "%"
  inhibition at 250 µg/mL: 97.3
- compound: "C=C(C)[C@@H]1CC[C@]2(C(=O)O)CC[C@]3(C)[C@H](CC[C@@H]4[C@@]5(C)CC[C@H](O)C(C)(C)[C@@H]5CC[C@]43C)[C@@H]12 [Compound 7, 3β-Dihydroxylup-20(29)-ene-28-oic Acid]"
  endpoint unit: "%"
  inhibition at 250 µg/mL: 95.7

// inhibition at 250 µg/mL value for O=c1cc(-c2ccccc2)oc2cc(O)cc(O)c12 [Compound 9, 5,7-Dihydroxyflavone] : 93.7

Data point: CCC(CCC(C)C1CCC2C3CC=C4CC(OC5OC(CO)C(O)C(O)C5O)CCC4(C)C3CCC12C)C(C)C [Compound 3, β-Sitosterol-3-O-β-D-Glucopyranoside] ; inhibition at 250 µg/mL = 95.7

====

Target: BChE (Homo sapiens)
Assay: biochemical
Details: 250 μg/ml; read-out: % BChE inhibition
Examples of compounds with documented inhibition at 250 µg/mL follow.
Report only the number, with the unit % understood.

A selection of reference data follows.
- compound: "CC[C@H](CC[C@@H](C)[C@H]1CC[C@H]2[C@@H]3CC=C4C[C@@H](O)CC[C@]4(C)[C@H]3CC[C@]12C)C(C)C"
  inhibition at 250 µg/mL, %: 92.6
- compound: "C=C(C)[C@@H]1CC[C@]2(C)CC[C@]3(C)[C@H](CC[C@@H]4[C@@]5(C)CC[C@H](O)C(C)(C)[C@@H]5CC[C@]43C)[C@@H]12"
  inhibition at 250 µg/mL, %: 91.4

The record that follows has no inhibition at 250 µg/mL shown yet.
According to the records, this compound COc1ccc(C(CO)OC)cc1OC (stereo not drawn) displays inhibition at 250 µg/mL of 90.7
